subject.of.test: recombinant Raf-1 protein (activated type GST-Raf-1) (Homo sapiens, UniProt P04049)
Construct: fused on or other part: GST tag fused to Raf-1
Sequence (P04049 349-648 limits assumed): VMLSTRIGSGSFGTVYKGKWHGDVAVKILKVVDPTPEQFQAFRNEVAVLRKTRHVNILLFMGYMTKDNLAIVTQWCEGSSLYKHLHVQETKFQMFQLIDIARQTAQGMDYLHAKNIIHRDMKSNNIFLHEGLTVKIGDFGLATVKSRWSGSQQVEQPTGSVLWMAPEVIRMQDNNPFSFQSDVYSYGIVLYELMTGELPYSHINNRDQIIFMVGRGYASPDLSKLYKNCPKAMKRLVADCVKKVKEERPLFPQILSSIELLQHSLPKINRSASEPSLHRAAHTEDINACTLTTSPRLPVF
procedure.details: RAF-1 enzyme inhibition test (33P incorporation into MEK 1 protein)
conditions.used: 10 μM ATP, GST-MEK1 substrate, 30° C., 45 minutes; read-out: Raf-1 Enzyme Inhibition, 50% Enzyme Inhibition Concentration (IC50 value)
Structures can show the parent of a compound that is named as a salt.
Measured IC50, listed per entry for reference.
// return numeric value only (unit: nM, not printed)

Worked cases, answers included:
# compound, subject.of.test, experimental.readout, unit.string, recorded.value
measured = [
    ("CN1CCN(Cc2cc(NC(=O)Nc3ccc(-n4c(I)nc5c(N)ncnc54)cc3)cc(C(F)(F)F)c2)CC1", "recombinant Raf-1 protein (activated type GST-Raf-1) (Homo sapiens, UniProt P04049)", "IC50", "nM", 67),
    ("CNc1ncnc2c1ncn2-c1ccc(NC(=O)Nc2cc(CN3CCN(C)CC3)cc(C(F)(F)F)c2)cc1", "recombinant Raf-1 protein (activated type GST-Raf-1) (Homo sapiens, UniProt P04049)", "IC50", "nM", 110),
    ("CNc1ncnc2c1ncn2-c1ccc(NC(=O)Nc2ccc(Cl)c(C(F)(F)F)c2)cc1.Cl [Table 1, Compound 36, hydrochloride]", "recombinant Raf-1 protein (activated type GST-Raf-1) (Homo sapiens, UniProt P04049)", "IC50", "nM", 110),
    ("Nc1ncnc2ncn(-c3ccc(NC(=O)Nc4ccc(Cl)c(C(F)(F)F)c4)cc3)c12 [Table 3, Compound 1, hydrochloride]", "recombinant Raf-1 protein (activated type GST-Raf-1) (Homo sapiens, UniProt P04049)", "IC50", "nM", 51),
    ("Nc1ncnc2c1ncn2-c1ccc(NC(=O)Nc2ccc(Cl)c(C(F)(F)F)c2)cc1 [Table 1, Compound 30, hydrochloride]", "recombinant Raf-1 protein (activated type GST-Raf-1) (Homo sapiens, UniProt P04049)", "IC50", "nM", 33),
]

Recorded IC50 of `CNc1ncnc2c1ncn2-c1ccc(NC(=O)Nc2cc(C(=O)NCCN(C)C)cc(C(F)(F)F)c2)cc1` , please.
75
